Target Of Assay: T1, human CD8αα homodimer, recombinant protein (Acro Biosystems) (human, UniProt P01732 22-182)
T1 construct: also called CD8αα antigen; biotinylated CD8α recombinant protein (CDA-H82E3)
T1 sequence (P01732 22-182 limits assumed): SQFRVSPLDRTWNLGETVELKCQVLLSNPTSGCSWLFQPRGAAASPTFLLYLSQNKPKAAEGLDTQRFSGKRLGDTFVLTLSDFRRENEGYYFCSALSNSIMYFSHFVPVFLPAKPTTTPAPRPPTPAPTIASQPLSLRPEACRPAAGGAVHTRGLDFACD
Assay Remarks: BLI kinetics, F(ab) on biotinylated CD8α (SA-XT sensor), 1:1 fit, 37 °C [CONT'ED]

{"Binder": "CBD1035 (Fab, V domains shown, also called h1017-H3/L2 F(ab)) VH: QVQLVQSGAEVKKPGASVKISCKASRYTFTDYNLHWVRQAPGQGLEWIGFIYPYNGGTGYAQKFQGRATLTVDTSTSTAYMELSSLRSEDTAVYYCARDHRYNEGVSFDYWGQGTTLTVSS VL: DIQLTQSPSSLSASVGDRATITCRASESVDGFGNSFMNWYQQKPGKAPKLLIYLASNLESGVPSRFSGSGSGTDFTLTISSVQPEDFATYYCQQNNEDPYTFGQGTKLEIK", "Kd": "8.02 nM"}
{"Binder": "CBD1033 Fab (h1017-H2 / h1017-L2) (Fab, V domains shown, Expressed as F(ab) fragment; also called CBD1033 Fab molecule) VH: QVQLVQSGAEVKKPGASVKVSCKASRYTFTDYNLHWVRQAPGQGLEWMGFIYPYNGGTGYAQKFQGRVTMTVDTSTSTAYMELSSLRSEDTAVYYCARDHRYNEGVSFDYWGQGTTVTVSS VL: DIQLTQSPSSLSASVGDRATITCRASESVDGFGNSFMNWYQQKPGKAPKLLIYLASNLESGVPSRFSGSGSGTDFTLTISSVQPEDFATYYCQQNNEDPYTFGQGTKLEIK", "Kd": "5.5 nM"}
